All figures here come from patent US20060183902A1.

systemName: α1b-AR (Homo sapiens)
Construct: expressed in transfected cells; host or cells: COS-7
Sequence (P35368 whole entry): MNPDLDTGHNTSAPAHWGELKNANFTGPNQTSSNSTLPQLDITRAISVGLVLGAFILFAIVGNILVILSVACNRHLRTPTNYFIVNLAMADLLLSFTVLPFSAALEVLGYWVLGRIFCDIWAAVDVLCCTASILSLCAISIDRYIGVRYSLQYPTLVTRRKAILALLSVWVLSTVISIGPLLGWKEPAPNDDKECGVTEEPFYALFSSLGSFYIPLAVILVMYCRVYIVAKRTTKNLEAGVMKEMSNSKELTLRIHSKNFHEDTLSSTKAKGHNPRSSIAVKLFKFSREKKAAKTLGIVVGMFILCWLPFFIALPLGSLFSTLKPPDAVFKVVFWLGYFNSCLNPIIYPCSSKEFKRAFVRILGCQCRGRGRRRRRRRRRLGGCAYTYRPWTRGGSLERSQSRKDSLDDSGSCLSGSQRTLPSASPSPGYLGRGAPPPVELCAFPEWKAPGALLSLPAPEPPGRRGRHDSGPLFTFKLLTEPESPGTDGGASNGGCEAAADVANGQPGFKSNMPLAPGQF
testProtocol: α1-Adrenergic receptor radio-ligand (125I-HEAT) binding assay, α1b subtype
protocolConditions: COS-7 cell membranes transfected with α1b-AR, 125I-HEAT 50 pM; read-out: Receptor Binding, Ki α1b-AR
measuredParameter: Ki (nM)

molecule: COc1ccccc1CN1CCN(Cc2cccc(C(=O)N3CCc4ccccc43)c2)CC1
systemName: α1b-AR (Homo sapiens)
unitText: nM
Ki: 146
--
molecule: CC(C)Oc1ccccc1N1CCN(Cc2cccc(C(=O)N3CCc4ccc(NC5CCc6ccccc6C5)cc43)c2)CC1 (stereo not drawn)
systemName: α1b-AR (Homo sapiens)
unitText: nM
Ki: 282
--
molecule: CC(C)Oc1ccccc1N1CCN(Cc2cccc(C(=O)N3CCc4cc(NS(N)(=O)=O)ccc43)c2)CC1
systemName: α1b-AR (Homo sapiens)
unitText: nM
Ki: 812
--
molecule: CC(C)Oc1ccccc1N1CCN(Cc2cccc(C(=O)N3CCc4cc(-c5ccccc5)ccc43)c2)CC1
systemName: α1b-AR (Homo sapiens)
unitText: nM
Ki: 154
--
molecule: CCS(=O)(=O)Nc1ccc2c(c1)N(C(=O)c1cccc(CN3CCN(c4ccccc4OC(C)C)CC3)c1)CC2
systemName: α1b-AR (Homo sapiens)
unitText: nM
Ki: 230

[A] CC(C)Oc1ccccc1C1CCN(Cc2cccc(C(=O)N3CCc4ccc(NCc5ccccc5F)cc43)c2)CC1
[B] COc1ccccc1CN1CCN(Cc2ccc(C(=O)N3CCc4ccccc43)cc2)CC1
[C] COc1cccc(OC)c1CNc1ccc2c(c1)N(C(=O)c1cccc(CN3CCN(c4ccccc4OC(C)C)CC3)c1)CC2
Endpoint returns the given molecules ordered by ascending Ki. Rank them, then answer with their labels in that order.
B, A, C
(B: 104 nM, A: 237 nM, C: 684 nM)

[1] COc1cccc(OC)c1C(=O)Nc1ccc2c(c1)CCN2C(=O)c1cccc(CN2CCN(c3ccccc3OC(C)C)CC2)c1
[2] CC(C)Oc1ccccc1N1CCN(Cc2cccc(C(=O)N3CCc4cc(NS(=O)(=O)c5cccc6c(N(C)C)cccc56)ccc43)c2)CC1
Which entry shows the lesser value of Ki here, 1 or 2 ? When you have decided, please share the label of that item.
1

[P] CC(C)Oc1ccccc1N1CCN(Cc2cccc(C(=O)N3CCc4ccc(NC(=O)Nc5ccccc5)cc43)c2)CC1
[Q] CC(C)Oc1ccccc1N1CCN(Cc2cccc(C(=O)N3CCc4cc(S(=O)(=O)N(C)C)ccc43)c2)CC1
Compare P and Q and name the one whose reported Ki is smaller. Answer by stating the label of the chosen item.
P
(P: 251 nM, Q: 1760 nM)
